- System: HS 578T breast
- protocol description: NCI-60 one-dose screen, 48 h
- protocol conditions: 10 µM unless noted
The panel holds about 83,000 compounds, 20% with a hit somewhere; the sample as a whole holds those more often. The source made the active and inactive calls. Rule for the calls: active = growth percent below 10; inactive = the rest.
Answer with one of the outcomes active, inactive

Use the examples below as a reference point.
C=C(C)[C@@H]1CC[C@]2(COCCCNCCCN)CC[C@]3(C)[C@H](CC[C@@H]4[C@@]5(C)CC[C@H](O)C(C)(C)[C@@H]5CC[C@]43C)[C@@H]12
active
C=C(C)[C@@H]1CC[C@]2(COP(=O)(OCC)OCC)CC[C@]3(C)[C@H](CC[C@@H]4[C@@]5(C)CC[C@H](OP(=O)(OCC)OCC)C(C)(C)[C@@H]5CC[C@]43C)[C@@H]12
inactive

## Input # outcome recorded in this test, key = "Cc1[nH]c(C(=O)Nc2ccccc2OCc2cccc(C(=O)NCCN)c2)cc1Cl"
## Output inactive

## Input Hi team, can someone confirm the assay call for "CN(C)c1ccc(-c2cc(-c3c[nH]c4ccccc34)nc(N)c2C#N)cc1" ?
## Output inactive

## Input // param item: C/C(CC1(O)C(=O)Nc2ccccc21)=N\O (stereo unspecified) ; yields the recorded call
## Output inactive

## Input Which outcome did this test record for the molecule "CNc1sc(S(=O)(=O)NC)nc1S(=O)(=O)c1ccc(C)cc1" ?
## Output inactive

###

- System: SF-539 CNS
- protocol description: NCI-60 one-dose screen, 48 h (100 = growth as untreated, 0 = no growth, -100 = all killed)
- protocol conditions: 10 µM unless noted
The panel holds about 83,000 compounds, 20% with a hit somewhere; the sample as a whole holds those more often. The source made the active and inactive calls. Rule for the calls: active = growth percent below 10; inactive = the rest.
test readout: growth

Reference set, count: 2
CNc1sc(S(=O)(=O)NC)nc1S(=O)(=O)c1ccc(C)cc1
98.6% (inactive)
Cc1cc(NS(=O)(=O)c2ccc(NC(=O)CSc3nc4ccccc4c(=O)n3-c3ccccc3)cc2)no1
95.3% (inactive)

// below: growth requested for another molecule
## Input Sample "COc1ccc(CC(C)=C(c2ccc(OCCN3CCCC3)cc2)c2ccc(OCCN3CCCC3)cc2)cc1" — what was its growth?
## Output -90.1% (active)

###

- System: BT-549 breast
- protocol description: NCI-60 one-dose screen, 48 h (100 = growth as untreated, 0 = no growth, -100 = all killed)
- protocol conditions: 10 µM unless noted
About 83,000 compounds went through this panel and 20% of them were active in at least one assay; those are over-represented in the sample as a whole.
As shown below, each of these compounds has a reported growth value.
# value in %; strip the unit string

Cc1ccc(N2CCN(C3=C(Cl)C(=O)c4ncccc4C3=O)CC2)cc1
103
O=C(CN1CCN(c2cc(=O)[nH]c3ccc(F)cc23)CC1)N(c1ccccc1)c1ccccc1
104
O=C1[C@@H]2Cc3c([nH]c4ccccc34)[C@H](c3ccc(Cl)cc3)N2C(=O)CN1C1CCN(Cc2ccccc2)CC1
72.1

Alright, here's another compound for you.
## Input // query growth value for entry "CC/C(=C(/c1ccc(Cl)cc1)c1ccc(OCCN)cc1)c1ccccc1"
## Output 129

###

Documented growth across a set of compounds
- System: SNB-19 CNS
- protocol description: NCI-60 one-dose screen, 48 h (100 = growth as untreated, 0 = no growth, -100 = all killed)
- protocol conditions: 10 µM unless noted
The panel holds about 83,000 compounds, 20% with a hit somewhere; the sample as a whole holds those more often.
Entry rule: numbers only, all in %.

Cc1ccccc1Nc1nc(SC(C)C)nc(-c2ccccc2)c1C#N
19.9
Cc1csc(/N=C(N)/N=C(\N)c2cccc(Br)c2)n1
79.2
O=C(CCCCCCNC(=O)c1csc(Br)n1)NO
59.7
CC1=C(C)C(=O)C(Nc2ccc(C)cc2)=C(Br)C1=O
101
COc1ccc(C2c3[nH]c4ccc(Cl)cc4c3CCN2c2oc(CO)nc2C#N)cc1 (stereo unspecified)
51.9
O=C(COc1ccc(/C=C2\C(=O)Nc3ccc(Cl)cc32)cc1)Nc1ccc(Cl)cc1
78.2
NS(=O)(=O)c1cccc(Nc2nc(SCC(=O)c3ccc(Cl)cc3)nc3c2CCC3)c1
62.5
COc1ccc2[nH]cc(-c3nc(N)nnc3-c3cn(C)c4ccc(Br)cc34)c2c1
30.5
C#Cc1nc(C(=O)NCCCCCCC(=O)NO)cs1
30.6
C[C@H](Nc1ncnc2ccc(-c3cnc(Cl)c(NS(C)(=O)=O)c3)cc12)c1ccccc1
-44.3

Kindly review the next compound as well.
## Input What measured growth goes with "CC[C@H](CC[C@@H](C)[C@H]1CC[C@H]2[C@@H]3CC(=O)C4=CC(=O)/C(=C/c5ccc([N+](=O)[O-])cc5)C[C@]4(C)[C@H]3CC[C@]12C)C(C)C" ?
## Output 102

The reported measurements were obtained from PubChem BioAssay (NCI).
